Test system: P. falciparum Dd2 (PfLuc) line expressing firefly luciferase, asexual blood stage
assay_summary: microbe, parasite or virus in culture
Format: cell-based, Plasmodium falciparum
assay_context: Plasmodium falciparum, DD2; 11-pt dose response, 48hr; read-out: P. falciparum Luciferase ABS 11-pt Reconfirmation Dose Response (48hr): Maximum inhibition (%)
Entries get a class label from measured Emax. See ranges: range 1 (below 50%), range 2 (50% to below 70%), range 3 (70% or more)

CN1CCN(c2ccccc2NC(=O)NCCc2ccccc2)CC1; range 2
Cc1cc(Cl)ccc1S(=O)(=O)NCC(C)N1CCN(C)CC1 (centres unmarked); range 2

INPUT: Which class holds CCN(CC)CCN(C)c1nc(-c2ccc(Cl)cc2)nc2c1CNC2 ?
OUTPUT: range 3

INPUT: Which class holds O=C(C1CNCCO1)N1CCCC(c2ccccc2)(c2ccccc2)C1 (centres unmarked) ?
OUTPUT: range 2

INPUT: Which class holds Cn1cc(CN2CCCC(CCc3ccccc3C(F)(F)F)C2)cn1 (centres unmarked) ?
OUTPUT: range 2

INPUT: Which class holds O=C(NCCc1ccccc1)NCCN1CCC(c2cccs2)CC1 ?
OUTPUT: range 2

INPUT: Which class holds O=S(=O)(NCC(c1ccsc1)N1CCCCCC1)c1cccs1 (centres unmarked) ?
OUTPUT: range 1
